Reported EC50 values for a set of compounds
- study_target: hT1R2/hT1R3 (Homo sapiens, UniProt Q7RTX0+Q8TE23)
- Construct: expressed in transfected cells; parental cells lack the receptor
- Sequence (Q8TE23 20-839): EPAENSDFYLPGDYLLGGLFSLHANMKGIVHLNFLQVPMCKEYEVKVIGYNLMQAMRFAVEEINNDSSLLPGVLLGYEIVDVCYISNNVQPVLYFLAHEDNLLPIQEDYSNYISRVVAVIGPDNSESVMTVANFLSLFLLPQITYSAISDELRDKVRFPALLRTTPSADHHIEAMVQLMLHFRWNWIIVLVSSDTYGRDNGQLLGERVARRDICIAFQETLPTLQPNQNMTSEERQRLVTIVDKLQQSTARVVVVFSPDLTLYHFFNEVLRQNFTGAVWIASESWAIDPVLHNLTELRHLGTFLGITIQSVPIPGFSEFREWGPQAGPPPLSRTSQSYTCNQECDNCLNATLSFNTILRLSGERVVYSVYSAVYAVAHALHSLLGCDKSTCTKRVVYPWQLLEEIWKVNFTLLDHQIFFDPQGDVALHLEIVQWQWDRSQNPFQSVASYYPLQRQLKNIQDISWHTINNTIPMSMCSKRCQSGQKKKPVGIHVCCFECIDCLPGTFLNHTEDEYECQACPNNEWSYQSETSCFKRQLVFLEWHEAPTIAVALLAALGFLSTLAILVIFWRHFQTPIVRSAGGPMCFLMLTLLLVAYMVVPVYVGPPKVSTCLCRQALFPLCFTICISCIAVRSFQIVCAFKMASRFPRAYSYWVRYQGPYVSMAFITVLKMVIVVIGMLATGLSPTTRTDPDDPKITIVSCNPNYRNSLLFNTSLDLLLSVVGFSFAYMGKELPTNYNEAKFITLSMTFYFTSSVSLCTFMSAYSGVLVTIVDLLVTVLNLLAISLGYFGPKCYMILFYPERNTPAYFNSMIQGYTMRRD
- Sequence (Q7RTX0 21-852): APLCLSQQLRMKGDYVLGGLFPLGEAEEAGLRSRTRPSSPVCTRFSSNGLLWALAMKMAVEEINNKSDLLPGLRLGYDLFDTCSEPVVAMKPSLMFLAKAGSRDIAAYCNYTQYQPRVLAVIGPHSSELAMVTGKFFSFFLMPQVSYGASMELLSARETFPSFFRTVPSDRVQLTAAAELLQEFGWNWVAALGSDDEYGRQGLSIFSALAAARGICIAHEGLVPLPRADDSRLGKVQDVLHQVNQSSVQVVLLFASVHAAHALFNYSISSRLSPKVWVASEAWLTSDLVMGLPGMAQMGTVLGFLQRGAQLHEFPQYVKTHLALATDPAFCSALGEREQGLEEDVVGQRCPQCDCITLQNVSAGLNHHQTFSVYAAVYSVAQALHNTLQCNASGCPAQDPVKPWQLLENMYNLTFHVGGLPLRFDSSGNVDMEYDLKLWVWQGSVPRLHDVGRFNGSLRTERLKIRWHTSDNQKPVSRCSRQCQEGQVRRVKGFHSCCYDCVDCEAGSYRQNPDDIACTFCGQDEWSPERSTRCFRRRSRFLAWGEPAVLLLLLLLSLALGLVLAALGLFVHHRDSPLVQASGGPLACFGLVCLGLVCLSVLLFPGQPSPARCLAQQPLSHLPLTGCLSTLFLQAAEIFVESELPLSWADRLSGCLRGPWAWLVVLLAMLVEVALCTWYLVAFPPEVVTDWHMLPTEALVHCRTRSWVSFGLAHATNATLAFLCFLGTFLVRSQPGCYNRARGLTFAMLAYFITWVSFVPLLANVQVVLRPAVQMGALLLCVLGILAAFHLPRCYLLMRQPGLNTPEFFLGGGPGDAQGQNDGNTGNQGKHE
- assay_summary: HTS-Sweet: FLIPR calcium fluorometric imaging assay in cells stably expressing the human sweet taste receptor and a promiscuous G protein
- Format: cell-based
- measurement_context: FLIPR, Fluo-4AM, 10 concentrations 0.4 μM to 200 μM in duplicates; read-out: Compound EC50s for hT1R2/hT1R3
readout_label: EC50

compound: C[C@H](CC[C@@H](O[C@@H]1O[C@H](CO[C@H]2O[C@H](CO)[C@@H](O)[C@H](O)[C@H]2O)[C@@H](O)[C@H](O)[C@H]1O[C@@H]1O[C@H](CO)[C@@H](O)[C@H](O)[C@H]1O)C(C)(C)O)C1CC[C@@]2(C)C3CC=C4C(CC[C@H](O[C@@H]5O[C@H](CO)[C@@H](O)[C@H](O)[C@H]5O)C4(C)C)[C@]3(C)C(=O)C[C@]12C (some centres unmarked)
readout_label: EC50
recorded_result: > 30 µM
//
compound: C[C@H](CC[C@@H](O[C@@H]1O[C@H](CO[C@@H]2O[C@H](CO[C@@H]3O[C@H](CO)[C@@H](O)[C@H](O)[C@H]3O)[C@@H](O)[C@H](O)[C@H]2O)[C@@H](O)[C@H](O)[C@H]1O[C@@H]1O[C@H](CO)[C@@H](O)[C@H](O)[C@H]1O)C(C)(C)O)C1CC[C@@]2(C)C3CC=C4C(CC[C@H](O[C@@H]5O[C@H](COC6O[C@H](CO)[C@@H](O)[C@H](O)[C@H]6O)[C@@H](O)[C@H](O)[C@H]5O)C4(C)C)[C@]3(C)[C@H](O)C[C@]12C (some centres unmarked)
readout_label: EC50
recorded_result: > 30 µM
//
compound: C[C@H](CC[C@@H](O[C@@H]1O[C@H](CO[C@@H]2O[C@H](CO)[C@@H](O)[C@H](O)[C@H]2O)[C@@H](O[C@@H]2O[C@H](CO)[C@@H](O)[C@H](O)[C@H]2O)[C@H](O)[C@H]1O)C(C)(C)O)C1CC[C@@]2(C)C3CC=C4C(CC[C@H](O[C@@H]5C[C@H](COC6O[C@H](CO)[C@@H](O)[C@H](O)[C@H]6O)[C@@H](O)[C@H](O)[C@H]5O)C4(C)C)[C@]3(C)C(=O)C[C@]12C (some centres unmarked)
readout_label: EC50
recorded_result: > 30 µM
//
compound: C[C@H](CC[C@@H](O[C@@H]1O[C@H](CO)[C@@H](O)[C@H](O)[C@H]1O[C@@H]1O[C@H](CO)[C@@H](O[C@H]2O[C@H](CO)[C@@H](O)[C@H](O)[C@H]2O)[C@H](O)[C@H]1O)C(C)(C)O)C1CC[C@@]2(C)C3CC=C4C(CC[C@H](O[C@@H]5O[C@H](CO)[C@@H](O)[C@H](O)[C@H]5O)C4(C)C)[C@]3(C)[C@H](O)C[C@]12C (some centres unmarked)
readout_label: EC50
recorded_result: 17 to 30 µM
//
compound: C[C@H](CC[C@@H](O[C@@H]1O[C@H](CO)[C@@H](O)[C@H](O)[C@H]1O[C@@H]1O[C@H](CO)[C@@H](O)[C@H](O)[C@H]1O)C(C)(C)O)C1CC[C@@]2(C)C3CC=C4C(CC[C@H](O[C@@H]5O[C@H](CO[C@@H]6O[C@H](CO)[C@@H](O)[C@H](O)[C@H]6O)[C@@H](O)[C@H](O)[C@H]5O[C@H]5O[C@@H](CO)[C@H](O)[C@@H](O)[C@@H]5O)C4(C)C)[C@]3(C)[C@H](O)C[C@]12C (some centres unmarked)
readout_label: EC50
recorded_result: > 30 µM

// data source = patent US11357246B2
